The measurements presented in this section are drawn from patent US10385065B2.

Test system: S. aureus VRS1 MRSA VAN resistant
PROTOCOL SUMMARY: MIC, S. aureus VRS1
Assay type: cell-based
CONDITIONS: Staphylococcus aureus, Table 2
PROPERTY: MIC

[[record]]
molecule_smiles = "Cc1c(-c2ccc3[nH]ncc3c2)ccc2c3ocnc3c(=O)n(C3CC3)c12"
property = "MIC"
observed = "< 1 µg/mL"

[[record]]
molecule_smiles = "Cc1nc2c(=O)n(C3CC3)c3c(C)c(-c4cc(F)c(N)cc4F)ccc3c2o1"
property = "MIC"
observed = "< 1 µg/mL"

[[record]]
molecule_smiles = "Cc1c(-c2cc(F)c(N)cc2F)ccc2c3oc(CO)nc3c(=O)n(C3CC3)c12"
property = "MIC"
observed = "1 to 10 µg/mL"


###

Tested on: Staphylococcus aureus ATCC 29213
PROTOCOL SUMMARY: MIC, broth microdilution, S. aureus ATCC 29213
Type: cell-based
CONDITIONS: ATCC 29213 / MSSA, Table 2, read-out: MIC S. aureus (MSSA) ATCC 29213 CLSI control strain
Listed next: entries and their corresponding MIC.
PROPERTY: MIC

[[record]]
molecule = "CCn1c(=O)c2ncoc2c2cc(F)c(-c3cc(N)c(F)cc3F)c(C)c21 [Compound 105]"
measurement_target = "Staphylococcus aureus ATCC 29213"
observed = "10 to 100 µg/mL"

[[record]]
molecule = "Cc1c(-c2ccc(C(=O)NCC(=O)O)cc2)ccc2c3ocnc3c(=O)n(C3CC3)c12 [Compound 31]"
measurement_target = "Staphylococcus aureus ATCC 29213"
observed = "> 100 µg/mL"

[[record]]
molecule = "C[C@H]1COc2c(-c3cc(F)c(N)cc3F)ccc3c4ocnc4c(=O)n1c23 [Compound 93]"
measurement_target = "Staphylococcus aureus ATCC 29213"
observed = "1 to 10 µg/mL"

[[record]]
molecule = "Cc1nc2c(=O)n(C3CC3)c3c(C)c(-c4ccc(N)nc4)ccc3c2o1 [Compound 23]"
measurement_target = "Staphylococcus aureus ATCC 29213"
observed = "< 1 µg/mL"

[[record]]
molecule = "NC(=O)c1ccc(-c2cc3c(cc2F)c2ocnc2c(=O)n3C2CC2)cc1 [Compound 58]"
measurement_target = "Staphylococcus aureus ATCC 29213"
observed = "1 to 10 µg/mL"


###

System: Staphylococcus aureus ATCC 29213
PROTOCOL SUMMARY: MIC, broth microdilution, S. aureus ATCC 29213
Format: cell-based
CONDITIONS: ATCC 29213 / MSSA, Table 2, read-out: MIC S. aureus (MSSA) ATCC 29213 CLSI control strain
Listed next: entries and their corresponding MIC.
PROPERTY: MIC

[[record]]
compound = "Cc1c(-c2cc(F)c(C(C)O)cc2F)ccc2c3ocnc3c(=O)n(C3CC3)c12 (stereo not drawn)"
measurement_target = "Staphylococcus aureus ATCC 29213"
observed = "< 1 µg/mL"

[[record]]
compound = "Cc1nc2c(=O)n(C3CC3)c3c(C)c(-c4cnc(C(C)(C)O)nc4)ccc3c2o1"
measurement_target = "Staphylococcus aureus ATCC 29213"
observed = "10 to 100 µg/mL"

[[record]]
compound = "Cc1c(-c2cc(F)c(N)cc2F)ccc2c3scnc3c(=O)n(C3CC3)c12"
measurement_target = "Staphylococcus aureus ATCC 29213"
observed = "< 1 µg/mL"

[[record]]
compound = "Cc1nc2c(=O)n(C3CC3)c3cc(-c4ccc5[nH]ncc5c4)c(F)cc3c2o1"
measurement_target = "Staphylococcus aureus ATCC 29213"
observed = "< 1 µg/mL"

[[record]]
compound = "Cc1c(-c2cnc(N)nc2)ccc2c3oc(CN)nc3c(=O)n(C3CC3)c12"
measurement_target = "Staphylococcus aureus ATCC 29213"
observed = "1 to 10 µg/mL"

[[record]]
compound = "NC1CCN(c2nc3c(cc2F)c2ocnc2c(=O)n3C2CC2)C1 (stereo not drawn)"
measurement_target = "Staphylococcus aureus ATCC 29213"
observed = "1 to 10 µg/mL"

[[record]]
compound = "C[C@H]1COc2c(N3CCN(C)CC3)c(F)cc3c(=O)c(C(=O)O)cn1c23 [Levofloxacin, reference compound]"
measurement_target = "Staphylococcus aureus ATCC 29213"
observed = "< 1 µg/mL"

[[record]]
compound = "Cc1nc2c(=O)n(C3CC3)c3cc(N4CCC(N)C4)c(F)cc3c2o1 (stereo not drawn)"
measurement_target = "Staphylococcus aureus ATCC 29213"
observed = "1 to 10 µg/mL"

[[record]]
compound = "Cc1nc2c(=O)n(C3CC3)c3cc(-c4ccncc4F)c(F)cc3c2o1"
measurement_target = "Staphylococcus aureus ATCC 29213"
observed = "10 to 100 µg/mL"

